Measured Max. OD600 by item
- Test system: C. basilensis HMF14
- protocol.description: Growth of C. basilensis HMF14 on furan derivatives as sole carbon source
- Format: cell-based, Cupriavidus basilensis
- details: minimal medium, 3.5 mM compound as sole carbon source

molecule: O=Cc1ccc(CO)o1 [HMF, 5-(hydroxymethyl)-furfural]
Max. OD600: 0.95

Max. OD600 recorded for this molecule, O=C(O)c1ccco1 , is 0.99

Max. OD600 recorded for this molecule, O=Cc1ccco1 , is 1.09

Max. OD600 recorded for this molecule, OCc1ccco1 , is 1.08

====

- System: Cupriavidus sp. HMF14
- protocol.description: Growth of Cupriavidus sp. HMF14 on carbon sources (strain characterization)
- Assay type: cell-based, Cupriavidus basilensis
measured.attribute: Growth on carbon source

Before answering, review these 5 worked examples.
compound: Cc1ccccc1
target.system: Cupriavidus sp. HMF14
Growth on carbon source: able to grow
//
compound: Oc1ccccc1
target.system: Cupriavidus sp. HMF14
Growth on carbon source: able to grow
//
compound: O=C[C@@H](O)[C@H](O)[C@H](O)CO
target.system: Cupriavidus sp. HMF14
Growth on carbon source: No growth
//
compound: O=C(O)[C@H](O)[C@@H](O)[C@H](O)[C@H](O)CO [gluconate]
target.system: Cupriavidus sp. HMF14
Growth on carbon source: able to grow
//
compound: O=C(O)CCC(=O)O [succinate]
target.system: Cupriavidus sp. HMF14
Growth on carbon source: able to grow

# context switch: different compound, same Growth on carbon source
Growth on carbon source recorded for this compound, O=C[C@H](O)[C@@H](O)[C@H](O)CO , is No growth
